Quick reference for half-life among some molecules
- EXPERIMENT_NOTES: physchem
- CONDITIONS_USED: buffer, t1/2 (days) of first step
Numbers only here, please. The scale is h.

Example entries begin here.
{"MOLECULE": "S=P1(S)SCCS1 [Example 11]", "READOUT_KIND": "half-life", "RESULT_VALUE": 2.04}
{"MOLECULE": "S=P(S)(Sc1ccccc1)Sc1ccccc1 [Example 13]", "READOUT_KIND": "half-life", "RESULT_VALUE": 31.2}
{"MOLECULE": "S=P1(S)OCCO1 [Example 2]", "READOUT_KIND": "half-life", "RESULT_VALUE": 204}

Could you tell me which half-life is on file for CC1COP(=S)([S-])O1.[K+] (stereo not shown) [Example 3] ?
98.4

Record: S=P1(S)SCCCS1 [Example 12]
36

Record: CCCSP(=S)(S)SCCC [Example 10]
3.12

Record: CCc1ccc(OP(=S)([S-])Oc2ccc(CC)cc2)cc1.[K+] [Example 6]
93.6
